Catalogue of collision cross section in nitrogen values
testMethodNotes: collision cross section in nitrogen (drift tube, single-field); higher = larger gas-phase ion size;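 note: chemical standards at 10 µM analysed by drift tube IMS-QTOF MS in about 3.95 torr nitrogen, mean of duplicate injections differing ≤1%, mass error below 10 ppm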
experimentalSetup: ion type: [M+H]; ion source: ESI; ion mode: Positive
Please give a number only; it is taken to be in Å².

compound: [O-][n+]1ccc(Cl)cc1 [4-Chloropyridine 1-oxide]
reportedEndpoint: collision cross section in nitrogen
testValue: 121.6
//
compound: COc1cc(OC)nc(Sc2cccc(Cl)c2C(=O)O)n1
reportedEndpoint: collision cross section in nitrogen
testValue: 166.7
//
compound: CCOC(=O)COc1cc(-c2nn(C)c(OC(F)F)c2Cl)c(F)cc1Cl
reportedEndpoint: collision cross section in nitrogen
testValue: 188
//
compound: Nc1ccc(Cc2ccc(N)cc2)cc1
reportedEndpoint: collision cross section in nitrogen
testValue: 163.1
//
compound: COc1ccn(C)c(=O)c1C#N
reportedEndpoint: collision cross section in nitrogen
testValue: 132.4
//
compound: Cc1cc(=O)oc2cc(N(C)C)ccc12
reportedEndpoint: collision cross section in nitrogen
testValue: 141.3

collision cross section in nitrogen for C=CCOC(Cn1ccnc1)c1ccc(Cl)cc1Cl (stereo not drawn) is 167.9

collision cross section in nitrogen for CCc1cccc(C)c1N(C(=O)CCl)C(C)COC (stereo not drawn) is 159.8

collision cross section in nitrogen for CC1(C)Cc2cccc(N)c2O1 [2,2-Dimethyl-2,3-dihydro-1-benzofuran-7-amine] is 135

collision cross section in nitrogen for CCOc1nc(F)cc2nc(S(=O)(=O)Nc3c(Cl)cccc3Cl)nn12 is 183.5

collision cross section in nitrogen for Nc1ccc(-c2ccc(N)cc2)cc1 is 157

collision cross section in nitrogen for CNC(=O)C(c1ccccc1)c1ccccc1 [N-methyl-alpha-phenylbenzeneacetamide] is 152.9

collision cross section in nitrogen for CCOc1cccc(-n2cc(C(=O)N3CCN(c4cc(C(=O)O)c5ccccc5c4)CC3)nc2-c2ccc(C)cc2)c1 is 228.8

collision cross section in nitrogen for Nc1ccc(N=Nc2ccc(-c3ccc(N=Nc4c(S(=O)(=O)O)cc5cc(S(=O)(=O)O)c(N=Nc6ccccc6)c(O)c5c4N)cc3)cc2)c(N)c1 is 311

collision cross section in nitrogen for Nc1c(Oc2ccccc2)cc(O)c2c1C(=O)c1ccccc1C2=O is 178

* * *

testMethodNotes: collision cross section in nitrogen (drift tube, single-field); higher = larger gas-phase ion size
experimentalSetup: ion type: [M+H]; ion source: APCI; ion mode: Positive
Structures can show the parent of a compound that is named as a salt.
reportedEndpoint: collision cross section in nitrogen (Å²)
Please give a number only; it is taken to be in Å².

Below are worked cases with known answers.
molecule: Clc1ccc(C2(Cn3cncn3)CC(Br)CO2)c(Cl)c1 (centres undefined)
collision cross section in nitrogen [Å²]: 172.7

molecule: CCN(CCC#N)c1cccc(C)c1 [3-(Ethyl(3-methylphenyl)amino)propanenitrile]
collision cross section in nitrogen [Å²]: 144.7

molecule: Cc1cc(-c2cc(C)c(N)c(C)c2)cc(C)c1N
collision cross section in nitrogen [Å²]: 175.7

// switching to the query molecule
collision cross section in nitrogen for CN(C)[C@@H]1C(O)=C(C(N)=O)C(=O)[C@@]2(O)C(O)=C3C(=O)c4c(O)cccc4[C@@](C)(O)[C@H]3[C@H](O)[C@@H]12 [Oxytetracycline hydrochloride] is 199.9

* * *

testMethodNotes: collision cross section in nitrogen (drift tube, single-field); higher = larger gas-phase ion size
experimentalSetup: ion type: [M+H]; ion source: ESI; ion mode: Positive
Where a name gives a salt, the structure may show the parent alone.
reportedEndpoint: collision cross section in nitrogen (Å²)
Please give a number only; it is taken to be in Å².

Below are worked cases with known answers.
compound: Cc1cc(F)ccc1-c1cc(N2CC[C@@H](O)[C@H]2CO)ncc1N(C)C(=O)C(C)(C)c1cc(C(F)(F)F)cc(C(F)(F)F)c1
collision cross section in nitrogen / Å²: 244.6
--
compound: NCC1(Cc2noc(=O)[nH]2)CCCCC1
collision cross section in nitrogen / Å²: 154
--
compound: O=C1CCCN1C1CCCCC1
collision cross section in nitrogen / Å²: 140.3
--
compound: Cc1cc(Cc2ccc(N)c(C)c2)ccc1N
collision cross section in nitrogen / Å²: 171.2
--
compound: CN(C)C(=N)NC(=N)N
collision cross section in nitrogen / Å²: 125.7
--
compound: CC(C)Oc1cccc(NC(=O)c2ccccc2C(F)(F)F)c1
collision cross section in nitrogen / Å²: 172.7

collision cross section in nitrogen for Oc1cccnc1 is 117.3

collision cross section in nitrogen for Cc1[nH]c(=O)c(C#N)cc1-c1ccncc1 is 156.3

collision cross section in nitrogen for c1cncc([C@@H]2CCCCN2)c1 is 135.9

collision cross section in nitrogen for CCCCCCCCn1sccc1=O is 158

collision cross section in nitrogen for CN(C)[C@@H]1C(O)=C(C(N)=O)C(=O)[C@@]2(O)C(O)=C3C(=O)c4c(O)cccc4[C@@](C)(O)[C@H]3[C@H](O)[C@@H]12 [Oxytetracycline hydrochloride] is 197.8

* * *

Catalogue of collision cross section in nitrogen values
testMethodNotes: collision cross section in nitrogen (drift tube, single-field); higher = larger gas-phase ion size
experimentalSetup: ion type: [M+]; ion source: APCI; ion mode: Positive
Structures can show the parent of a compound that is named as a salt.
Please give a number only; it is taken to be in Å².

molecule: c1ccc2cc3c(ccc4ccccc43)cc2c1
measurementUnit: Å²
collision cross section in nitrogen: 146.3
--
molecule: c1ccc2c(c1)ccc1ncccc12
measurementUnit: Å²
collision cross section in nitrogen: 130.3
--
molecule: CCN(CCC#N)c1cccc(C)c1 [3-(Ethyl(3-methylphenyl)amino)propanenitrile]
measurementUnit: Å²
collision cross section in nitrogen: 143.6
--
molecule: Cc1ccc2nc(-c3ccc(N)cc3)sc2c1 [Dehydrothio-4-toluidine]
measurementUnit: Å²
collision cross section in nitrogen: 153.5
--
molecule: Oc1ccc(/C=C/c2cc(O)cc(O)c2)cc1
measurementUnit: Å²
collision cross section in nitrogen: 155.1

collision cross section in nitrogen for Cc1cc(-c2ccc(N)c(C)c2)ccc1N [3,3'-Dimethylbenzidine dihydrochloride] is 150.7

collision cross section in nitrogen for COc1cc(NC(=O)CC(C)=O)c(OC)cc1Cl [4'-Chloro-2',5'-dimethoxyacetoacetanilide] is 156.7

collision cross section in nitrogen for Nc1cccc2ccccc12 is 125

collision cross section in nitrogen for CC(C)(C)c1cc(CCC(=O)NCCCCCCNC(=O)CCc2cc(C(C)(C)C)c(O)c(C(C)(C)C)c2)cc(C(C)(C)C)c1O [Antioxidant 1098] is 271.7

collision cross section in nitrogen for COC(=O)C1=C(C)NC(C)=C(C(=O)OCCN(C)Cc2ccccc2)C1c1cccc([N+](=O)[O-])c1 (stereo not given) [Nicardipine hydrochloride] is 208.8

collision cross section in nitrogen for COc1cc(Cl)c(OC)cc1N is 133

collision cross section in nitrogen for CC1(CO)CN(c2ccccc2)NC1=O (stereo not given) [4-(Hydroxymethyl)-4-methyl-1-phenylpyrazolidin-3-one] is 143.2

collision cross section in nitrogen for C/C=C/C=C/CO is 117.4

* * *

testMethodNotes: collision cross section in nitrogen (drift tube, single-field); higher = larger gas-phase ion size
experimentalSetup: ion type: [M-H]; ion source: ESI; ion mode: Negative
Counter-ions that a name gives are not always drawn.
reportedEndpoint: collision cross section in nitrogen (Å²)
Please give a number only; it is taken to be in Å².

compound: Nc1ccc([N+](=O)[O-])cc1O
testValue: 125.3
--
compound: O=C(O)CCCCCCCC(=O)O
testValue: 140.7
--
compound: Oc1cc(Cl)c(Cl)cc1Cl [2,4,5-Trichlorophenol sodium salt]
testValue: 128.6
--
compound: Cc1ccc2oc(CN(Cc3ccccc3)C(=O)Nc3c(F)cc(F)cc3F)c(-c3ccc(Cl)cc3)c2c1
testValue: 225.2
--
compound: CCOC(=O)CN[C@@H](C(=O)N1CC[C@H]1C(=O)NCc1ccc(/C(N)=N/O)cc1)C1CCCCC1
testValue: 216.1
--
compound: Cc1cc(N=Nc2ccccc2C)ccc1N
testValue: 157.3

collision cross section in nitrogen for CCOC(=O)c1ccc(O)cc1 is 136.7

collision cross section in nitrogen for O=Nc1ccc(Nc2ccccc2)cc1 is 144.7

collision cross section in nitrogen for CCCCCCCC/C=C\CCCCCCCC(=O)OC[C@@H](O)[C@H]1OC[C@H](O)[C@H]1O [Sorbitan, mono-(9Z)-9-octadecenoate] is 207.7

collision cross section in nitrogen for CC(Oc1ccc(Oc2ncc(C(F)(F)F)cc2Cl)cc1)C(=O)O (stereo unspecified) is 190

collision cross section in nitrogen for CCCCN(CC)c1c([N+](=O)[O-])cc(C(F)(F)F)cc1[N+](=O)[O-] is 168.5

* * *

Catalogue of collision cross section in nitrogen values
testMethodNotes: collision cross section in nitrogen (drift tube, single-field); higher = larger gas-phase ion size
experimentalSetup: ion type: [M+H]; ion source: APCI; ion mode: Positive
Please give a number only; it is taken to be in Å².

compound: CCOc1cc(C(C)(C)C)ccc1C1COC(c2c(F)cccc2F)=N1 (stereo not given) [Etoxazole]
collision cross section in nitrogen / Å²: 186.3
//
compound: CCCCNC1CC(C)(C)NC(C)(C)C1 [N-Butyl-2,2,6,6-tetramethylpiperidin-4-amine]
collision cross section in nitrogen / Å²: 153.3
//
compound: CCCCCCCCCCCC[N+](C)(C)[O-] [N,N-Dimethyldodecylamine-N-oxide]
collision cross section in nitrogen / Å²: 175.3

collision cross section in nitrogen for CCNc1nc(N)nc(Cl)n1 [Deisopropylatrazine] is 133.5

collision cross section in nitrogen for CC(C1CC1)C(O)(Cn1cncn1)c1ccc(Cl)cc1 (stereo not given) [Cyproconazole] is 170.6
